Biological target: NOP receptor (NOP-RLuc/β-arrestin 2-RGFP) (Homo sapiens, UniProt P41146)
Construct: expressed in transfected cells; host or cells: HEK293 (whole cells)
Sequence (P41146 whole entry): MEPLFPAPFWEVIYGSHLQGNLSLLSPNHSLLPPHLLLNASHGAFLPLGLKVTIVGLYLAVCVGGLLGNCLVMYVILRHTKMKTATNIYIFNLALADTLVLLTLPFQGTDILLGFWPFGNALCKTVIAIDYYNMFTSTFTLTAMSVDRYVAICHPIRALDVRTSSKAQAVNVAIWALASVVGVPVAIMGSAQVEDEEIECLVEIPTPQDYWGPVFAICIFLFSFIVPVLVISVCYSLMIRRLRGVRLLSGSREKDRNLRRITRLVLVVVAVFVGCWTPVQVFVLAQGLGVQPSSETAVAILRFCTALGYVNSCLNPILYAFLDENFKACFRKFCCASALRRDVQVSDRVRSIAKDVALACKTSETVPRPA
Assay: NOP/β-arrestin 2 interaction, BRET assay in whole cells
Type: cell-based
Conditions: BRET; whole HEK293 cells co-expressing NOP-RLuc/β-arrestin 2-RGFP, 100,000 cells/well; room temperature; mean of five independent experiments in duplicate, 95% confidence limits
Non-standard residues stand in square brackets, D forms with d. No end group written: not given here.
measured_parameter: NOP/β-arrestin 2 pEC50 (CL95%)

substance="FAGFTGARKSARK-NH2 [Compound 2, [Ala^2]N/OFQ(1–13)-NH2]" result=inactive
substance="FGGFTGARKSAAK-NH2 [Compound 10, [Ala^12]N/OFQ(1–13)-NH2]" result="6.85 (6.57–7.14)"
substance="FGGFTGARKAARK-NH2 [Compound 9, [Ala^10]N/OFQ(1–13)-NH2]" result="8.43 (7.91–8.95)"
substance="[D-Phe^3]N/OFQ(1–13)-NH2 (FG[dF]FTGARKSARK-NH2; N-terminus assumed; SMILES C[C@H](NC(=O)CNC(=O)[C@@H](NC(=O)[C@H](Cc1ccccc1)NC(=O)[C@@H](Cc1ccccc1)NC(=O)CNC(=O)[C@@H](N)Cc1ccccc1)[C@@H](C)O)C(=O)N[C@@H](CCCNC(=N)N)C(=O)N[C@@H](CCCCN)C(=O)N[C@@H](CO)C(=O)N[C@@H](C)C(=O)N[C@@H](CCCNC(=N)N)C(=O)N[C@@H](CCCCN)C(N)=O) [Compound 25]" result=inactive
substance="[Cys(X)^14]N/OFQ(1-14)-NH2 [Compound 49] (chain 1 FGGFTGARKSARKC; chain 2 KKKKKK) [(Lys)6 moiety]" result="8.22 (8.03-8.40)"
substance="[Ala^1]N/OFQ(1–13)-NH2 (AGGFTGARKSARK-NH2) [Compound 1]" result=inactive
